- Test system: HGGX39 (paediatric high-grade glioma line)
- MEASUREMENT_DESCRIPTION: maximal growth inhibition (yFin) relative to DMSO / staurosporine; higher = more efficacious
ATTRIBUTE_MEASURED: maximal growth inhibition

{"columns": ["COMPOUND", "ASSAYED_SYSTEM", "OBS_VALUE"],
 "data": [
  ["Cc1ccc2nc(NCCN)c3ncc(C)n3c2c1", "HGGX39", "57.7%"],
  ["C=C[C@]1(C)C[C@@H](OC(=O)CSC(C)(C)CNC(=O)[C@H](N)C(C)C)[C@]2(C)[C@H](C)CC[C@]3(CCC(=O)[C@H]32)[C@@H](C)[C@@H]1O [VALNEMULIN]", "HGGX39", "30.5%"],
  ["CC(=O)N1c2ccc(-c3ccc(C(=O)O)cc3)cc2[C@H](Nc2ccc(Cl)cc2)C[C@@H]1C [I-BET726]", "HGGX39", "37.7%"]
]}

Values compiled from the supplement of paper PMC8253809.
